The values you see were collected from patent US12692254B2.

- targetOrTestSystem: human PAD4 (hPAD4) (Homo sapiens, UniProt Q9UM07)
- Sequence (Q9UM07 whole entry): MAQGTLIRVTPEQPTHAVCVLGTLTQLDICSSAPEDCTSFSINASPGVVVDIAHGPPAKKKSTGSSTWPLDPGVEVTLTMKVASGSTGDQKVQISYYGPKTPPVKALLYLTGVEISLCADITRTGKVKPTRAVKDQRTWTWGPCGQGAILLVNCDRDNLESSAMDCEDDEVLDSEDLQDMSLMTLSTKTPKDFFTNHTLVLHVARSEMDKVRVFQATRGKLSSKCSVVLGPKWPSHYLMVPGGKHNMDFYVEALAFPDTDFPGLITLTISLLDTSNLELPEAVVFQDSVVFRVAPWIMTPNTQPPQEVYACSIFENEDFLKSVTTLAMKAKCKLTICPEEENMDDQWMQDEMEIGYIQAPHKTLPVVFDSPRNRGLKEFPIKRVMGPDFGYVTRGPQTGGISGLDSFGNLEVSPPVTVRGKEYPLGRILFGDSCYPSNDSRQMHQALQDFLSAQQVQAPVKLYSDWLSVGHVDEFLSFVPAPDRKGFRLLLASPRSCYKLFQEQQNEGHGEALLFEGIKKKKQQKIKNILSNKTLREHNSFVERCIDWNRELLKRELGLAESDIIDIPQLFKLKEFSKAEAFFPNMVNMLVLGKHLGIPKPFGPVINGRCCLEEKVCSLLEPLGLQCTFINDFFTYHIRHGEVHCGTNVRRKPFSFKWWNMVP
- experimentDescription: RFMS human PAD4 functional assay (rapid-fire mass spectrum)
- experimentalConditions: 5 nM hPAD4 enzyme, 250 μM BAEE, 50 μM Calcium; 30 min preincubation, 90 min reaction at 37° C.
- Protocol: Compounds of the present invention were assayed as inhibitors of PAD4 using the assay protocol described below. RFMS tinman PAD4 Functional Assay: Compounds were solubilized in 100% DMSO to achieve a 10 mM compound concentration. Compound stock solutions were stored at RT. A series of dilutions were prepared in DMSO and mixed 8 times with 20 μl, mixing volume. Final top concentration of compound in the assay is 50 μM. […]

>  <compound>
N[C@@H]1C2CCC1N(C(=O)c1ccc3c(c1)nc(-c1cc4cccnc4n1CC1CC1)n3CC1CN(C(=O)c3ccccc3)C1)C2 (stereo partly drawn)

>  <resultUnits>
nM

>  <IC50>
83

$$$$
>  <compound>
COc1cc(C(=O)N2C[C@H](N)C[C@@H](F)C2)cc2nc(-c3cc4cccnc4n3CC3CC3)n(Cc3cnn(-c4ccc(C#N)cn4)c3)c12

>  <resultUnits>
nM

>  <IC50>
42

$$$$
>  <compound>
COc1cc(C(=O)N2C[C@H]3CC[C@@H]2[C@@H]3N)cc2nc(-c3cc4ccccc4n3CC3CC3)n(CC3CN(C(=O)c4ccccn4)C3)c12

>  <resultUnits>
nM

>  <IC50>
31

$$$$
>  <compound>
COc1cc(C(=O)N2C[C@H]3CC[C@@H]2[C@@H]3N)cc2nc(-c3cc4cccnc4n3CC3CC3)n(CC3CNC3)c12

>  <resultUnits>
nM

>  <IC50>
243

$$$$
>  <compound>
COc1cc(C(=O)N2C[C@H]3CC[C@@H]2[C@@H]3N)cc2nc(-c3cc4cccnc4n3CC3CC3)n(CC3CN(C(=O)C4CCCCC4)C3)c12

>  <resultUnits>
nM

>  <IC50>
46

$$$$
>  <compound>
COc1cc(C(=O)N2CC3CCC2[C@@H]3N)cc2nc(-c3cc4ccccc4n3CC3CC3)n(CC3CN(C(=O)c4ccnc(C)c4)C3)c12 (stereo partly drawn)

>  <resultUnits>
nM

>  <IC50>
21

$$$$
>  <compound>
COc1cc(C(=O)N2C[C@H]3CC[C@@H]2[C@@H]3N)cc2nc(-c3cc4cccnc4n3C)n(C[C@H]3CCN(c4ccnc(C#N)n4)C3)c12

>  <resultUnits>
nM

>  <IC50>
75

$$$$
>  <compound>
COc1cc(C(=O)N2CC3CCC2[C@@H]3N)cc2nc(-c3cc4ccccc4n3CC3CC3)n(CC3(C)CN(C(=O)c4ccccc4)C3)c12 (stereo partly drawn)

>  <resultUnits>
nM

>  <IC50>
24

$$$$
>  <compound>
COC(=O)N1CC(Cn2c(-c3cc4cccnc4n3CC3CC3)nc3cc(C(=O)N4C[C@H]5CC[C@@H]4[C@@H]5N)cc(OC)c32)C1

>  <resultUnits>
nM

>  <IC50>
148

$$$$
>  <compound>
COc1cc(C(=O)N2C[C@H]3CC[C@@H]2[C@@H]3N)cc2nc(-c3cc4ccccc4n3C)n(CC3CN(C(=O)c4ccccc4)C3)c12

>  <resultUnits>
nM

>  <IC50>
101

$$$$
>  <compound>
COc1cc(C(=O)N2CC3CCC2[C@@H]3N)cc2nc(-c3cc4ccc(C(C)O)cc4n3CC3CC3)n(CC3CN(C(=O)c4ccc(C#N)cc4)C3)c12 (stereo partly drawn)

>  <resultUnits>
nM

>  <IC50>
34

$$$$
>  <compound>
COc1cc(C(=O)N2C[C@H]3CC[C@@H]2[C@@H]3N)cc2nc(-c3cc4cccnc4n3CC3CC3)n(C3CN(C(=O)c4ccnc(Cl)c4)C3)c12

>  <resultUnits>
nM

>  <IC50>
71

$$$$
>  <compound>
COc1cc(C(=O)N2CC3CCC2[C@@H]3N)cc2nc(-c3cc4cccnc4n3CC3CC3)n(Cc3ccn(C)n3)c12 (stereo partly drawn)

>  <resultUnits>
nM

>  <IC50>
125

$$$$
>  <compound>
COc1cc(C(=O)N2C[C@H]3CC[C@@H]2[C@@H]3N)cc2nc(-c3cc4ccccc4n3CC3CC3)n(CC3CN(c4ccnc(C)n4)C3)c12

>  <resultUnits>
nM

>  <IC50>
39

$$$$
>  <compound>
COc1cc(C(=O)N2C[C@H]3CC[C@@H]2[C@@H]3N)cc2nc(-c3cc4ccccc4n3CC3CC3)n(CC3CN(C(=O)c4ccc(C#N)c(F)c4)C3)c12

>  <resultUnits>
nM

>  <IC50>
8

$$$$
>  <compound>
COc1cc(C(=O)N2CC3CCC2[C@@H]3N)cc2nc(-c3cc4cccnc4n3CC3CC3)n(CC3CCN(c4ccnc(C)n4)CC3)c12 (stereo partly drawn)

>  <resultUnits>
nM

>  <IC50>
67

$$$$
>  <compound>
COc1cc(C(=O)N2CC3CCC2[C@@H]3N)cc2nc(-c3cc4ccccc4n3CC3CC3)n(CC3CC(=O)N(C)C3)c12 (stereo partly drawn) [Example 473]

>  <resultUnits>
nM

>  <IC50>
129

$$$$
>  <compound>
COc1cc(C(=O)N2CC3CCC2[C@@H]3N)cc2nc(-c3cc4ccccc4n3C)n(CC3CN(C(=O)c4ccc(C#N)cc4)C3)c12 (stereo partly drawn)

>  <resultUnits>
nM

>  <IC50>
86

$$$$
>  <compound>
COc1cc(C(=O)N2C[C@H](N)C[C@@H](F)C2)cc2nc(-c3cc4ccccc4n3CC3CC3)n(Cc3ccccc3)c12

>  <resultUnits>
nM

>  <IC50>
780

$$$$
>  <compound>
COc1cc(C(=O)N2C[C@H]3CC[C@@H]2[C@@H]3N)cc2nc(-c3cc4cccnc4n3CC3CC3)n(C3CN(C(=O)c4cnc(C#N)nc4)C3)c12

>  <resultUnits>
nM

>  <IC50>
141

$$$$
>  <compound>
COc1cc(C(=O)N2C[C@H](N)C[C@@H](F)C2)cc2nc(-c3cc4cccnc4n3CC3CC3)n(Cc3cnn(-c4cnccn4)c3)c12

>  <resultUnits>
nM

>  <IC50>
53

$$$$
>  <compound>
COc1cc(C(=O)N2C[C@H]3CC[C@@H]2[C@@H]3N)cc2nc(-c3cc4cccnc4n3CC3CC3)n(CC3CN(c4nc(O)ncc4C#N)C3)c12

>  <resultUnits>
nM

>  <IC50>
400

$$$$
>  <compound>
COc1cc(C(=O)N2CC3CCC2[C@@H]3N)cc2nc(-c3cc4ccccc4n3CC3CC3)n(CC3CN(C(=O)c4ccc(Cl)s4)C3)c12 (stereo partly drawn)

>  <resultUnits>
nM

>  <IC50>
43

$$$$
>  <compound>
COc1cc(C(=O)N2CC3CCC2[C@@H]3N)cc2nc(-c3cc4cccnc4n3CC3CC3)n(C3CCN(C(=O)c4ccnc(Cl)c4)CC3)c12 (stereo partly drawn)

>  <resultUnits>
nM

>  <IC50>
927

$$$$

* * *

- targetOrTestSystem: human PAD4 (hPAD4) (Homo sapiens, UniProt Q9UM07)
- experimentDescription: RFMS human PAD4 functional assay (rapid-fire mass spectrum)
- experimentalConditions: 5 nM hPAD4 enzyme, 250 μM BAEE, 50 μM Calcium; 30 min preincubation, 90 min reaction at 37° C.
- Experimental: Compounds of the present invention were assayed as inhibitors of PAD4 using the assay protocol described below. RFMS tinman PAD4 Functional Assay: Compounds were solubilized in 100% DMSO to achieve a 10 mM compound concentration. Compound stock solutions were stored at RT. A series of dilutions were prepared in DMSO and mixed 8 times with 20 μl, mixing volume. Final top concentration of compound in the assay is 50 μM. […]
pIC50: −log10 of the molar value.
Listing of entries alongside the reported pIC50.
measuredMetric: pIC50

>  <compound>
COc1cc(C(=O)N2CC3CCC2[C@@H]3N)cc2nc(-c3cccn3CC3CC3)n(CC3CN(c4cncc(C#N)c4)C3)c12 (stereo partly drawn) [Example 317]

>  <measuredMetric>
pIC50

>  <assayValue>
5.93

$$$$
>  <compound>
COc1cc(C(=O)N2C[C@H]3CC[C@@H]2[C@@H]3N)cc2nc(-c3cc4ccccc4n3CC3CC3)n(CC3CN(C(=O)c4ccc(C)cc4)C3)c12 [Example 156]

>  <measuredMetric>
pIC50

>  <assayValue>
7.66

$$$$
>  <compound>
COc1cc(C(=O)N2C[C@H](N)C[C@@H](F)C2)cc2nc(-c3cc4ccccc4n3CC3CC3)n(Cc3cn[nH]c3)c12 [Example 266]

>  <measuredMetric>
pIC50

>  <assayValue>
7.09

$$$$
